Value source: patent US6843854B2

Test: physchem
Conditions: 24 °C, organic solvent or mixture, thermodynamic from solid, solubility limit
measuredProperty: solubility
// return the numeric value with its unit appended

Record summary for CC[C@H]1OC(=O)[C@H](C)[C@@H](O[C@H]2C[C@@](C)(OC)[C@@H](O)[C@H](C)O2)[C@H](C)[C@@H](O[C@@H]2O[C@H](C)C[C@H](N(C)C)[C@H]2O)[C@](C)(OC)C[C@@H](C)C(=O)[C@H](C)[C@@H](O)[C@]1(C)O : reported solubility = 2460 µg/mL
